Provenance of the data: patent US20060093596A1

Catalogue of substances with associated Minimal inhibitory concentration, E. coli DC2
- System: Escherichia coli DC2 (C500, outer membrane-permeable mutant)
- Format: cell-based
- Condition notes: lowest peptide concentration inhibiting growth by at least 50%; Mueller-Hinton broth
Where no end group is shown, it is not given here.
Answer format: numeric, µg/mL implied, no suffix.

Below: 2 substances and their reported Minimal inhibitory concentration, E. coli DC2.
{"columns": ["Substance", "Reported value"],
 "data": [
  ["GRRKRKWLRRIGKGVKIIGGAALDHL-NH2 [NRC-3]", 2],
  ["GWGSFFKKAAHVGKHVGKAALTHYL-NH2 [NRC-4]", 2]
]}

// query Would you kindly share the measured Minimal inhibitory concentration, E. coli DC2 for GFWGKLFKLGLHGIGLLHLHL-NH2 [NRC-15] ?
// result 8

----------
- Tested on: Escherichia coli DC2 (C500, outer membrane-permeable mutant)
- Assay type: cell-based
- Condition notes: lowest peptide concentration inhibiting growth by at least 50%; Mueller-Hinton broth
Where no end group is shown, it is not given here.
Binary call on Minimal inhibitory concentration, E. coli DC2: 1 from 20 µg/mL upward, -1 beneath that.

# example entries with known answers
{"columns": ["Substance", "Qualitative label"],
 "data": [
  ["AGWGSIFKHIFKAGKFIHGAIQAHND-NH2 [NRC-14]", -1],
  ["FLGLLFHGVHHVGKWIHGLIHGHH-NH2 [NRC-19]", 1],
  ["GWRTLLKKAEVKTVGKLALKHYL-NH2 [NRC-13]", -1],
  ["GWKSVFRKAKKVGKTVGGLALDHYL-NH2 [NRC-11]", -1]
]}

// query Could you please find out whether FFRLLFHGVHHVGKIKPRA-NH2 [NRC-10] has Minimal inhibitory concentration, E. coli DC2 that meets 20 µg/mL or exceeds it?
// result 1

// query Could you please find out whether GWKKWLRKGAKHLGQAAIK-NH2 [NRC-16] has Minimal inhibitory concentration, E. coli DC2 that meets 20 µg/mL or exceeds it?
// result -1

----------
- Tested on: Escherichia coli DC2 (C500, outer membrane-permeable mutant)
- Format: cell-based
- Condition notes: lowest peptide concentration inhibiting growth by at least 50%; Mueller-Hinton broth
Where no end group is shown, it is not given here.
Catalogue of substances with associated Minimal inhibitory concentration, E. coli DC2
Answer format: numeric, µg/mL implied, no suffix.

Below: 2 substances and their reported Minimal inhibitory concentration, E. coli DC2.
{"columns": ["Substance", "Reported value"],
 "data": [
  ["GWKKWFNRAKKVGKTVGGLAVDHYL-NH2 [NRC-12]", 2],
  ["GWGSIFKHGRHAAKHIGHAAVNHYL-NH2 [NRC-6]", 2]
]}

Query substance follows.
// query Would you kindly share the measured Minimal inhibitory concentration, E. coli DC2 for WLRRIGKGVKIIGGAALDHL-NH2 [NRC-2] ?
// result 64

----------
Catalogue of substances with associated Minimal inhibitory concentration, E. coli DC2
- Tested on: Escherichia coli DC2 (C500, outer membrane-permeable mutant)
- Assay type: cell-based
- Condition notes: lowest peptide concentration inhibiting growth by at least 50%; Mueller-Hinton broth
Where no end group is shown, it is not given here.

Below: 2 substances and their reported Minimal inhibitory concentration, E. coli DC2.
{"columns": ["Substance", "Reported value"],
 "data": [
  ["FFRLLFHGVHHGGGYLNAA-NH2 [NRC-9]", ">64 µg/mL"],
  ["FLGALIKGAIHGGRFIHGMIQNHH-NH2 [NRC-5]", ">64 µg/mL"]
]}

Query substance follows.
// query Would you kindly share the measured Minimal inhibitory concentration, E. coli DC2 for RSTEDIIKSISGGGFLNAMNA-NH2 [NRC-8] ?
// result >64 µg/mL
